# assay-notes: Biodistribution of radiometal-DOTA-BBN conjugates in CF1 normal mice
# details: 1 hour post-injection
measured-attribute: Avg % ID, Kidney (% ID)
Number only, in % ID; omit the unit.

Which value of Avg % ID, Kidney has been reported for CSCC[C@H](NC(=O)[C@H](CC(C)C)NC(=O)[C@H](Cc1c[nH]cn1)NC(=O)CNC(=O)[C@@H](NC(=O)[C@H](C)NC(=O)[C@H](Cc1c[nH]c2ccccc12)NC(=O)[C@H](CCC(N)=O)NC(=O)CCCCNC(=O)CN1CCN(CC(=O)O)CCN(CC(=O)O)CCN(CC(=O)O)CC1)C(C)C)C(N)=O [149Pm-DOTA-5-Ava-BBN[7-14]NH2] in the records? 1.11

Which value of Avg % ID, Kidney has been reported for CSCC[C@H](NC(=O)[C@H](CC(C)C)NC(=O)[C@H](Cc1cnc[nH]1)NC(=O)CNC(=O)[C@@H](NC(=O)[C@H](C)NC(=O)[C@H](Cc1c[nH]c2ccccc12)NC(=O)[C@H](CCC(N)=O)NC(=O)CCNC(=O)CN1CCN(CC(=O)O)CCN(CC(=O)O)CCN(CC(=O)O)CC1)C(C)C)C(N)=O [149Pm-DOTA-β-Ala-BBN[7-14]NH2] in the records? 0.61

Which value of Avg % ID, Kidney has been reported for CSCC[C@H](NC(=O)[C@H](CC(C)C)NC(=O)[C@H](Cc1cnc[nH]1)NC(=O)CNC(=O)[C@@H](NC(=O)[C@H](C)NC(=O)[C@H](Cc1c[nH]c2ccccc12)NC(=O)[C@H](CCC(N)=O)NC(=O)CN1CCN(CC(=O)O)CCN(CC(=O)O)CCN(CC(=O)O)CC1)C(C)C)C(N)=O [177Lu-DOTA-0-BBN[7-14]NH2] [metal not drawn] in the records? 0.58

* * *

# assay-notes: Biodistribution of radiometal-DOTA-BBN conjugates in CF1 normal mice
# details: 1 hour post-injection
Label key: condition met means Avg % ID/gm, S. Intestine under 0.6 % ID/gm; condition not met means Avg % ID/gm, S. Intestine of 0.6 % ID/gm or more.

Is the reported Avg % ID/gm, S. Intestine for CSCC[C@H](NC(=O)[C@H](CC(C)C)NC(=O)[C@H](Cc1cnc[nH]1)NC(=O)CNC(=O)[C@@H](NC(=O)[C@H](C)NC(=O)[C@H](Cc1c[nH]c2ccccc12)NC(=O)[C@H](CCC(N)=O)NC(=O)CCCCCCCNC(=O)CN1CCN(CC(=O)O)CCN(CC(=O)O)CCN(CC(=O)O)CC1)C(C)C)C(N)=O [177Lu-DOTA-8-Aoc-BBN[7-14]NH2] [metal not drawn] strictly below 0.6 % ID/gm? condition not met

Is the reported Avg % ID/gm, S. Intestine for CSCC[C@H](NC(=O)[C@H](CC(C)C)NC(=O)[C@H](Cc1c[nH]cn1)NC(=O)CNC(=O)[C@@H](NC(=O)[C@H](C)NC(=O)[C@H](Cc1c[nH]c2ccccc12)NC(=O)[C@H](CCC(N)=O)NC(=O)CCCCNC(=O)CN1CCN(CC(=O)O)CCN(CC(=O)O)CCN(CC(=O)O)CC1)C(C)C)C(N)=O [149Pm-DOTA-5-Ava-BBN[7-14]NH2] strictly below 0.6 % ID/gm? condition not met

Is the reported Avg % ID/gm, S. Intestine for CSCC[C@H](NC(=O)[C@H](CC(C)C)NC(=O)[C@H](Cc1cnc[nH]1)NC(=O)CNC(=O)[C@@H](NC(=O)[C@H](C)NC(=O)[C@H](Cc1c[nH]c2ccccc12)NC(=O)[C@H](CCC(N)=O)NC(=O)CN1CCN(CC(=O)O)CCN(CC(=O)O)CCN(CC(=O)O)CC1)C(C)C)C(N)=O [111In-DOTA-0-BBN[7-14]NH2] [metal not drawn] strictly below 0.6 % ID/gm? condition met

Is the reported Avg % ID/gm, S. Intestine for CSCC[C@H](NC(=O)[C@H](CC(C)C)NC(=O)[C@H](Cc1cnc[nH]1)NC(=O)CNC(=O)[C@@H](NC(=O)[C@H](C)NC(=O)[C@H](Cc1c[nH]c2ccccc12)NC(=O)[C@H](CCC(N)=O)NC(=O)CCNC(=O)CN1CCN(CC(=O)O)CCN(CC(=O)O)CCN(CC(=O)O)CC1)C(C)C)C(N)=O [177Lu-DOTA-β-Ala-BBN[7-14]NH2] [metal not drawn] strictly below 0.6 % ID/gm? condition met

Is the reported Avg % ID/gm, S. Intestine for CSCC[C@H](NC(=O)[C@H](CC(C)C)NC(=O)[C@H](Cc1c[nH]cn1)NC(=O)CNC(=O)[C@@H](NC(=O)[C@H](C)NC(=O)[C@H](Cc1c[nH]c2ccccc12)NC(=O)[C@H](CCC(N)=O)NC(=O)CCCCNC(=O)CN1CCN(CC(=O)O)CCN(CC(=O)O)CCN(CC(=O)O)CC1)C(C)C)C(N)=O [177Lu-DOTA-5-Ava-BBN[7-14]NH2] [metal not drawn] strictly below 0.6 % ID/gm? condition not met

Is the reported Avg % ID/gm, S. Intestine for CSCC[C@H](NC(=O)[C@H](CC(C)C)NC(=O)[C@H](Cc1cnc[nH]1)NC(=O)CNC(=O)[C@@H](NC(=O)[C@H](C)NC(=O)[C@H](Cc1c[nH]c2ccccc12)NC(=O)[C@H](CCC(N)=O)NC(=O)CN1CCN(CC(=O)O)CCN(CC(=O)O)CCN(CC(=O)O)CC1)C(C)C)C(N)=O [177Lu-DOTA-0-BBN[7-14]NH2] [metal not drawn] strictly below 0.6 % ID/gm? condition not met

Is the reported Avg % ID/gm, S. Intestine for CSCC[C@H](NC(=O)[C@H](CC(C)C)NC(=O)[C@H](Cc1c[nH]cn1)NC(=O)CNC(=O)[C@@H](NC(=O)[C@H](C)NC(=O)[C@H](Cc1c[nH]c2ccccc12)NC(=O)[C@H](CCC(N)=O)NC(=O)CCCCNC(=O)CN1CCN(CC(=O)O)CCN(CC(=O)O)CCN(CC(=O)O)CC1)C(C)C)C(N)=O [111In-DOTA-5-Ava-BBN[7-14]NH2] [metal not drawn] strictly below 0.6 % ID/gm? condition not met

Is the reported Avg % ID/gm, S. Intestine for CSCC[C@H](NC(=O)[C@H](CC(C)C)NC(=O)[C@H](Cc1cnc[nH]1)NC(=O)CNC(=O)[C@@H](NC(=O)[C@H](C)NC(=O)[C@H](Cc1c[nH]c2ccccc12)NC(=O)[C@H](CCC(N)=O)NC(=O)CCNC(=O)CN1CCN(CC(=O)O)CCN(CC(=O)O)CCN(CC(=O)O)CC1)C(C)C)C(N)=O [149Pm-DOTA-β-Ala-BBN[7-14]NH2] strictly below 0.6 % ID/gm? condition not met

Is the reported Avg % ID/gm, S. Intestine for CSCC[C@H](NC(=O)[C@H](CC(C)C)NC(=O)[C@H](Cc1cnc[nH]1)NC(=O)CNC(=O)[C@@H](NC(=O)[C@H](C)NC(=O)[C@H](Cc1c[nH]c2ccccc12)NC(=O)[C@H](CCC(N)=O)NC(=O)CCCCCCCNC(=O)CN1CCN(CC(=O)O)CCN(CC(=O)O)CCN(CC(=O)O)CC1)C(C)C)C(N)=O [149Pm-DOTA-8-Aoc-BBN[7-14]NH2] strictly below 0.6 % ID/gm? condition not met

Is the reported Avg % ID/gm, S. Intestine for CSCC[C@H](NC(=O)[C@H](CC(C)C)NC(=O)[C@H](Cc1cnc[nH]1)NC(=O)CNC(=O)[C@@H](NC(=O)[C@H](C)NC(=O)[C@H](Cc1c[nH]c2ccccc12)NC(=O)[C@H](CCC(N)=O)NC(=O)CN1CCN(CC(=O)O)CCN(CC(=O)O)CCN(CC(=O)O)CC1)C(C)C)C(N)=O [149Pm-DOTA-0-BBN[7-14]NH2] strictly below 0.6 % ID/gm? condition met

Is the reported Avg % ID/gm, S. Intestine for CSCC[C@H](NC(=O)[C@H](CC(C)C)NC(=O)[C@H](Cc1c[nH]cn1)NC(=O)CNC(=O)[C@@H](NC(=O)[C@H](C)NC(=O)[C@H](Cc1c[nH]c2ccccc12)NC(=O)[C@H](CCC(N)=O)NC(=O)CCCCCCCCCCNC(=O)CN1CCN(CC(=O)O)CCN(CC(=O)O)CCN(CC(=O)O)CC1)C(C)C)C(N)=O [177Lu-DOTA-11-Aun-BBN[7-14]NH2] [metal not drawn] strictly below 0.6 % ID/gm? condition not met

Is the reported Avg % ID/gm, S. Intestine for CSCC[C@H](NC(=O)[C@H](CC(C)C)NC(=O)[C@H](Cc1cnc[nH]1)NC(=O)CNC(=O)[C@@H](NC(=O)[C@H](C)NC(=O)[C@H](Cc1c[nH]c2ccccc12)NC(=O)[C@H](CCC(N)=O)NC(=O)CCCCCCCNC(=O)CN1CCN(CC(=O)O)CCN(CC(=O)O)CCN(CC(=O)O)CC1)C(C)C)C(N)=O [111In-DOTA-8-Aoc-BBN[7-14]NH2] [metal not drawn] strictly below 0.6 % ID/gm? condition not met

Is the reported Avg % ID/gm, S. Intestine for CSCC[C@H](NC(=O)[C@H](CC(C)C)NC(=O)[C@H](Cc1cnc[nH]1)NC(=O)CNC(=O)[C@@H](NC(=O)[C@H](C)NC(=O)[C@H](Cc1c[nH]c2ccccc12)NC(=O)[C@H](CCC(N)=O)NC(=O)CCNC(=O)CN1CCN(CC(=O)O)CCN(CC(=O)O)CCN(CC(=O)O)CC1)C(C)C)C(N)=O [111In-DOTA-β-Ala-BBN[7-14]NH2] [metal not drawn] strictly below 0.6 % ID/gm? condition not met
